test system: U2OS; experiment: Incucyte cell viability with U2OS; type: toxicity, cell-based; settings: human, 24 h, 10 µM, compound concentration 10 uM, replicate number 1, timepoint 24 hours; further: unitless GR value; below 1 slowed growth and below 0 cell loss
# key: entry, value: Growth Rate

Below, each entry is followed by its recorded Growth Rate result.
compound: COc1cc(OC2CCN(C(C)=O)CC2)ccc1C(=O)N1CCC(N2C(=O)OCc3ccccc32)CC1
Growth Rate: 0.91
--
compound: O=C(Nc1cc(-c2cn[nH]c2)ccc1N1CCOCC1)c1ccc(-c2ccc3ncccc3c2)o1
Growth Rate: 0.7
--
compound: O=C(NCC(=O)N1CC[C@H](N[C@H]2CC[C@@](O)(c3ccc(-c4ncccn4)cn3)CC2)C1)c1cccc(C(F)(F)F)c1 [PF-4136309]
Growth Rate: 0.7
--
compound: CC(C)Oc1ccc(-c2nc(-c3cccc4c3CC[C@@H]4NCCO)no2)cc1C#N [OZANIMOD]
Growth Rate: 0.38
--
compound: CNC[C@H](O)c1ccc(O)c(O)c1 [EPINEPHRINE]
Growth Rate: 0.86
--
compound: CCCCCC(O)/C=C/[C@H]1C(=O)CC(O)C1C/C=C\CCCC(=O)O (some centres undefined)
Growth Rate: 0.72
--
compound: O=C(NCCO)c1cccc(-c2cc(Nc3ccc(OC(F)(F)F)cc3)ncn2)c1
Growth Rate: 0.79
--
compound: O=C(O)CCC/C=C\C[C@H]1C(=O)C[C@@H](O)[C@@H]1/C=C/[C@@H](O)CCc1ccccc1
Growth Rate: 0.97
--
compound: Cc1cc(=O)n(C)c2cc(N3C(=O)CC[C@H](NS(=O)(=O)CC(C)C)[C@H]3c3ccc(Cl)cc3)ccc12
Growth Rate: 0.7
--
compound: N#Cc1cc(F)cc(-c2nc(-c3ccc(F)cn3)no2)c1
Growth Rate: 0.65

So for `CN(C)C(=O)Cn1cc(-c2ccc(-c3nnc4ccccn34)cc2)cn1` , the logged Growth Rate turned out to be 0.83

So for CC[S+]([O-])c1nc(-c2cccc(OCc3ccccc3)c2)cc(C(F)(F)F)n1 (centres undefined) , the logged Growth Rate turned out to be -0.09

So for CCCCCCCC/C=C\CCCCCCCC(N)=O [OLEAMIDE] , the logged Growth Rate turned out to be 0.98

So for CC(C)[C@H](C(=O)Nc1ccc(C(=O)NO)cc1)c1ccccc1 [AR-42] , the logged Growth Rate turned out to be 0.39

So for Cc1nccc(COC(=O)N2C[C@@H]3[C@@H](CNC(=O)c4ccc5[nH]nnc5c4)[C@@H]3C2)n1 [BI 3017] , the logged Growth Rate turned out to be 0.71

---

tested on: Fibroblast; assay: Incucyte cell viability with human fibroblast; format: toxicity, cell-based; details: 24 h, 10 µM, compound concentration 10 uM, replicate number 1, timepoint 24 hours; further: unitless GR value; below 1 slowed growth and below 0 cell loss
*1 amine or outer side, *2 acyl side, *3 side chain or, on linkers, in order; H or OH if unused. Where a SMILES comes first, the peptide text is derived from it. Bridges are numbered along the chain shown (N, C = ends). X1 = O=C(CCC[*:2])[*:1]
# key: entry, value: Growth Rate
Write the value as a bare number.

compound: Cc1ccc2c(c1CCC(=O)O)CC[C@@H](NS(=O)(=O)c1ccc(Cl)cc1)C2
Growth Rate: 0.83

Entry CC[C@H](C)[C@@H]1NC(=O)[C@H](Cc2ccc(OC)cc2)NC(=O)CCCSC[C@@H](C(=O)N2CCC[C@H]2C(=O)N[C@@H](CC(C)C)C(=O)NCC(N)=O)NC(=O)[C@H](CC(N)=O)NC(=O)[C@H](CCC(N)=O)NC1=O [CARBETOCIN] (Y(Me)IQNCPLG-NH2; linker N-5 via X1) : Growth Rate on Fibroblast = 0.54

Entry COC[C@@H](c1ccc(C(F)(F)F)cc1)N1CCN(C2(C)CCN(C(=O)c3c(C)ncnc3C)CC2)C[C@@H]1C.O=C(O)/C=C\C(=O)O [VICRIVIROC MALEATE] : Growth Rate on Fibroblast = 0.67

---

test system: HEK-293T; experiment: Incucyte cell viability with HEK293T; format: toxicity, cell-based; conditions: human, 0 h, 10 µM, compound concentration 10 uM, replicate number 2, timepoint 0 hours; further: unitless GR value; below 1 slowed growth and below 0 cell loss
outcome.measure: Growth Rate
Write the value as a bare number.

compound: CN1C[C@@H](NS(=O)(=O)N(C)C)C[C@@H]2c3cccc4c3c(cn4C)C[C@H]21.Cl [MESULERGINE HYDROCHLORIDE]
result: 0.55
--
compound: CCN1/C(=C/C(C)=O)Sc2ccc(OC(C)=O)cc21
result: 0.37
--
compound: CCCC(CCC)C(=O)O
result: 0.39
--
compound: Cc1cc(-c2ccc3c(c2)CC[C@H]3N2CC3(CCN(C(=O)Cc4cn5cc(C)sc5n4)CC3)C2)ncn1
result: 0.77
--
compound: CCc1cc2cc(NS(=O)(=O)c3ccc(C#N)cc3)ccc2n(CC)c1=O
result: 0.08

Entry CCn1c(-c2nc3cc(C(=O)N4CCCC(N)C4)ccc3n2C)cc2ccccc21.Cl (configuration not stated) : Growth Rate on HEK-293T = -1

Entry `C[C@H]1[C@H]2CC[C@H]3[C@@H]4CC=C5C[C@@H](N(C)C)CC[C@]5(C)[C@H]4CC[C@]23CN1C` : Growth Rate on HEK-293T = 0.74

Entry `CC[C@H]1CN2CCc3cc(OC)c(OC)cc3[C@@H]2C[C@@H]1C[C@H]1NCCc2cc(OC)c(OC)cc21` : Growth Rate on HEK-293T = 0.89

Entry O=C(O)CCC/C=C\CC1C(O)CC(O)C1/C=C/C(O)COc1cccc(Cl)c1 (configuration not stated) : Growth Rate on HEK-293T = 0.63

Entry Br.Oc1cc2c(cc1O)C(c1ccccc1)CNCC2 (configuration not stated) : Growth Rate on HEK-293T = 0.61

Entry `CC(C)C[C@@H](NC(=O)[C@H](Cc1ccccc1)NC(=O)CNC(=O)[C@@H](C)NC(=O)[C@@H](N)Cc1ccc(O)cc1)C(=O)O` : Growth Rate on HEK-293T = 0.5

---

test system: Fibroblast; test: Incucyte cell viability with human fibroblast; format: toxicity, cell-based; details: 12 h, 10 µM, compound concentration 10 uM, replicate number 1, timepoint 12 hours; further: unitless GR value; below 1 slowed growth and below 0 cell loss
Sorting guide: entries reporting Growth Rate beneath 0.5 go in the Satisfied pile, the rest go in the Not satisfied pile.

compound: CC(C)n1cnc2c(Nc3cccc(Cl)c3)nc(N[C@H]3CCCC[C@@H]3N)nc21
test.target: Fibroblast
class: Not satisfied

Dear colleague, could you confirm whether Growth Rate of Cc1ccc(O)c([C@H](CCN(C(C)C)C(C)C)c2ccccc2)c1.O=C(O)C(O)C(O)C(=O)O [TOLTERODINE TARTRATE] falls below 0.5? Thanks. Not satisfied

Dear colleague, could you confirm whether Growth Rate of `CC(C)n1cc(-c2ccc(N3CCN(C)CC3)c(NC(=O)c3ccc(-c4ccncc4)o3)c2)cn1` falls below 0.5? Thanks. Satisfied

Dear colleague, could you confirm whether Growth Rate of `Cc1nc(C#Cc2cccnc2)cs1.Cl` falls below 0.5? Thanks. Satisfied

Dear colleague, could you confirm whether Growth Rate of `COc1c(Nc2ccc(S(C)(=O)=O)nc2C)ncnc1OC1CCN(C(=O)OC(C)C)CC1` falls below 0.5? Thanks. Not satisfied

Dear colleague, could you confirm whether Growth Rate of `COc1cc(OC2CCN(C(C)=O)CC2)ccc1C(=O)N1CCC(N2C(=O)OCc3ccccc32)CC1` falls below 0.5? Thanks. Satisfied

Dear colleague, could you confirm whether Growth Rate of `Cc1cc(C)cc(C(=O)NOCCCCCC(=O)NO)c1` falls below 0.5? Thanks. Not satisfied

Dear colleague, could you confirm whether Growth Rate of `CNC(=O)c1nn(C)c2c1C(C)(C)Cc1cnc(Nc3ccc(N4CCN(C)CC4)cc3)nc1-2` falls below 0.5? Thanks. Satisfied

Dear colleague, could you confirm whether Growth Rate of O=C(NCCN1CCC(n2c(=O)[nH]c3cc(Cl)ccc32)CC1)c1ccc(F)cc1 [HALOPEMIDE] falls below 0.5? Thanks. Satisfied

---

test system: Fibroblast; experiment: Incucyte cell viability with human fibroblast; assay type: toxicity, cell-based; settings: 6 h, 10 µM, compound concentration 10 uM, replicate number 1, timepoint 6 hours; further: unitless GR value; below 1 slowed growth and below 0 cell loss
# key: entry, value: Growth Rate
Write the value as a bare number.

molecule: C[C@H](CCC(=O)O)[C@H]1CC[C@H]2[C@@H]3CC[C@@H]4C[C@H](O)CC[C@]4(C)[C@H]3CC[C@]12C
Growth Rate: 0.65

molecule: Nc1ncnc2c1ncn2[C@@H]1O[C@H](CO)[C@@H](O)[C@H]1O
Growth Rate: -0.04

molecule: COc1cc(OC)cc(C(=O)NNC(=O)Nc2cccc3ccccc23)c1
Growth Rate: 0.64

molecule: COC(=O)[C@H]1[C@H]2C[C@H]3c4[nH]c5ccccc5c4CCN3C[C@H]2CC[C@@H]1O.Cl [RAUWOLSCINE HYDROCHLORIDE]
Growth Rate: 0.83

Entry `Cc1cc(Cn2cnc3c2C[C@@H](C(=O)O)N(C(=O)C(c2ccccc2)c2ccccc2)C3)ccc1N(C)C` : Growth Rate on Fibroblast = 0.22

Entry `CC(=O)O[C@H]1C(=O)[C@@]2(C)[C@H]([C@H](OC(=O)c3ccccc3)[C@]3(O)C[C@H](OC(=O)[C@H](O)[C@@H](NC(=O)c4ccccc4)c4ccccc4)C(C)=C1C3(C)C)[C@]1(OC(C)=O)CO[C@@H]1C[C@@H]2O` : Growth Rate on Fibroblast = -0.93

Entry `CCc1ccccc1C(=O)Nc1n[nH]c2c(C)c(F)c(C3C(C#N)=C(C)N(C)C(C)=C3C#N)cc12` : Growth Rate on Fibroblast = 0.12
